SYSTEM: UniProt:O42275
Sequence (O42275 whole entry): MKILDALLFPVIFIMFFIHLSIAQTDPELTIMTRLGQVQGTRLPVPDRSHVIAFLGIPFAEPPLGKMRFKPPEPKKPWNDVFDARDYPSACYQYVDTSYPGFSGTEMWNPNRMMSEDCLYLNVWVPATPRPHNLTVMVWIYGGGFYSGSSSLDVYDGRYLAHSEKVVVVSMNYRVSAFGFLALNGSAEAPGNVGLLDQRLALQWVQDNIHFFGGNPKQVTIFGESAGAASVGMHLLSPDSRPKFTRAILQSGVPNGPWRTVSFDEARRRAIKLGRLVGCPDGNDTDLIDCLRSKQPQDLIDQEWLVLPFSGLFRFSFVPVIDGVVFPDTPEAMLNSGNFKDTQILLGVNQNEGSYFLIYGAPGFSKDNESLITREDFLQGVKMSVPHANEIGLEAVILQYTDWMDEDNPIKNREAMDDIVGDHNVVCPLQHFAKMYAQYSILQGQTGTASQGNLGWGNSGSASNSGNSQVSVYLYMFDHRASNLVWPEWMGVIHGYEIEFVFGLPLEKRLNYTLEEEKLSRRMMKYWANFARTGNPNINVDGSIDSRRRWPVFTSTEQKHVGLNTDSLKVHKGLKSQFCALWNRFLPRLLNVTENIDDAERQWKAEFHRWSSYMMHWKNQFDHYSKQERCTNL
READOUT TYPE: IC50 (µM)
Just the number please, in µM, no unit attached.

Challenge: Give IC50 (UniProt:O42275) of the following molecule: `CCOP(=O)(OCC)Oc1ccc(Cc2cc3ccccc3oc2=O)cc1`
Response given: 30.2
